- Tested on: MAST1;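 further: KINOMEscan kinase panel screen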
- measurementParameters: concentration: 1 μM, replicates: in singlicate; n = 1
Reported values of %Inh for individual entries
Report the figure in % without appending any unit label.

// below: answered compounds
{"columns": ["compound", "unitInfo", "%Inh"],
 "data": [
  ["CCc1nc(-c2cccc(N(C)S(=O)(=O)c3ccccc3)c2)c(-c2ccnc(Nc3ccc(N4CCN(C(C)=O)CC4)nc3)n2)s1 [GSK1645895]", "%", 0],
  ["CN1CCC(n2cnc(-c3ccc(F)cc3)c2-c2ccnc(NC3CCNCC3)n2)CC1 [SB-229482]", "%", 27],
  ["CS(=O)(=O)CCNCc1ccc(-c2ccc3ncnc(Nc4ccc(OCc5ccccc5)c(Cl)c4)c3c2)o1.Cl [GW574783]", "%", 23],
  ["Cl.Cl.c1ccc(-c2cc3ccncc3cc2OC2CCNCC2)cc1 [GSK1122999]", "%", 0]
]}

QUERY: What %Inh value was documented for this compound, CNc1nccc(-c2c(-c3ccc(F)cc3)ncn2C2CCN(C)CC2)n1 [SB-222903] ?
RESULT: 10

QUERY: Lookup CC(=O)Nc1n[nH]c2ncc(-c3ccccc3)cc12 [SB-548492]
RESULT: 42

QUERY: Same lookup for `Fc1ccc(-c2ncn(CCCNCc3ccccc3)c2-c2ccncc2)cc1` , please.
RESULT: 28

QUERY: Same thing, different compound: CC(C)(C)OC(=O)NC1CCCN(c2cc(-c3ccc4c(N)n[nH]c4c3)nc(N)n2)C1 (stereo not drawn) [GSK2286096]
RESULT: 0

QUERY: Let us now turn to Cc1ccc(NC(=O)c2cccc(C#N)c2)cc1-c1ccc(C(=O)Nc2ccncc2)cc1 [GSK1398463]
RESULT: 17

QUERY: Try this compound too: `CN1c2ccc(-c3ccc(C(=O)NCCO)cc3)cc2-c2[nH]ncc2S1(=O)=O`
RESULT: 0

QUERY: COc1ccc(NC(=O)Nc2ccc(C)c(-c3ccc(C(=O)Nc4ccncc4)cc3)c2)cc1 [GSK1398475] ?
RESULT: 0

QUERY: Cool, now Nc1nc(-c2ccc3c(N)n[nH]c3c2)cc(N2CCCCC2)n1 [GSK2228768]
RESULT: 0
